# system-tested: Cathepsin S (Homo sapiens)
# assay-comment: Irreversible inhibition of human cathepsin S using Z-Phe-Arg-AMC as substrate assessed as ratio of Kinac/Ki after 10 to 80 mins by fluorimetric analysis
Ratio strictly less than 7000 M⁻¹ s⁻¹ = yes. Otherwise no.

Lab note: confirm whether the reported Ratio for this compound is below 7000 M⁻¹ s⁻¹, equality not counting. compound: CC(C)(C)OC(=O)NCCC(=O)N[C@@H](Cc1ccccc1)C(=O)NC/C=C/S(=O)(=O)c1ccccc1
no

Dear colleague, could you confirm whether Ratio of CC(C)C[C@H](NC(=O)CCNC(=O)OC(C)(C)C)C(=O)NC/C=C/S(=O)(=O)c1ccccc1 falls below 7000 M⁻¹ s⁻¹? Thanks.
no

Dear reviewer, please state whether CCOC(=O)/C=C/CNC(=O)[C@H](Cc1ccccc1)NC(=O)CCNC(=O)OC(C)(C)C has Ratio strictly beneath 7000 M⁻¹ s⁻¹.
yes

Check if Ratio falls below 7000 M⁻¹ s⁻¹ for CCOC(=O)/C=C/CNC(=O)[C@H](CC(C)C)NC(=O)CCNC(=O)OC(C)(C)C .
yes

For CC(C)C[C@H](NC(=O)COCCOCCNC(=O)OC(C)(C)C)C(=O)NC/C=C/S(=O)(=O)c1ccccc1 , is the recorded Ratio below the cut-off of 7000 M⁻¹ s⁻¹?
no

Here's an entry: CC(C)C[C@H](NC(=O)OC(C)(C)C)C(=O)NC/C=C/S(=O)(=O)c1ccccc1 . Is its Ratio below 7000 M⁻¹ s⁻¹?
no

In plain terms, does CCOC(=O)/C=C/CNC(=O)[C@H](Cc1ccccc1)NC(=O)COCCOCCNC(=O)OC(C)(C)C come in under 7000 M⁻¹ s⁻¹ for Ratio?
yes

Hi there! Is Ratio for CCOC(=O)/C=C/CNC(=O)[C@H](Cc1ccccc1)NC(=O)OC(C)(C)C below 7000 M⁻¹ s⁻¹, do you know?
yes

Threshold test, Ratio < 7000 M⁻¹ s⁻¹: CC(C)(C)OC(=O)N[C@@H](Cc1ccccc1)C(=O)NC/C=C/S(=O)(=O)c1ccccc1
no

# strict comparison: is reported Ratio < 7000 M⁻¹ s⁻¹? input = CCOC(=O)/C=C/CNC(=O)[C@H](CC(C)C)NC(=O)OC(C)(C)C
yes

---

I'd appreciate it if you could supply Ratio values for the items below.
# system-tested: Procathepsin L (Homo sapiens)
# assay-comment: Irreversible inhibition of human cathepsin L using Z-Phe-Arg-pNA as substrate assessed as ratio of Kinac/Ki after 10 to 80 mins by photometric analysis
I only need the number, in M⁻¹ s⁻¹, no unit after it.

Recorded Ratio (molecule CCOC(=O)/C=C/CNC(=O)[C@H](Cc1ccccc1)NC(=O)COCCOCCNC(=O)OC(C)(C)C ): 652

Per the record, CC(C)C[C@H](NC(=O)OC(C)(C)C)C(=O)NC/C=C/S(=O)(=O)c1ccccc1 has Ratio of 879

The measured Ratio associated with CCOC(=O)/C=C/CNC(=O)[C@H](CC(C)C)NC(=O)CCNC(=O)OC(C)(C)C reads 554

# Ratio of CCOC(=O)/C=C/CNC(=O)[C@H](Cc1ccccc1)NC(=O)OC(C)(C)C = 1120

CCOC(=O)/C=C/CNC(=O)[C@H](Cc1ccccc1)NC(=O)CCNC(=O)OC(C)(C)C has a reported Ratio of 3540

---

# system-tested: Cathepsin B (Homo sapiens)
# assay-comment: Irreversible inhibition of human cathepsin B using Z-Arg-Arg-pNA as substrate assessed as ratio of Kinac/Ki after 10 to 80 mins by photometric analysis
For each record, check the reported Ratio: if it is below 300 M⁻¹ s⁻¹ write class 1, else write class 0.

Does the reported Ratio of CCOC(=O)/C=C/CNC(=O)[C@H](CC(C)C)NC(=O)OC(C)(C)C stay below 300 M⁻¹ s⁻¹?
class 0

For this compound, is Ratio lower than 300 M⁻¹ s⁻¹? CC(C)C[C@H](NC(=O)COCCOCCNC(=O)OC(C)(C)C)C(=O)NC/C=C/S(=O)(=O)c1ccccc1
class 1

Please check: Ratio for CC(C)C[C@H](NC(=O)OC(C)(C)C)C(=O)NC/C=C/S(=O)(=O)c1ccccc1 , strictly under 300 M⁻¹ s⁻¹ or not?
class 1

# check: Ratio < 300 M⁻¹ s⁻¹ for CCOC(=O)/C=C/CNC(=O)[C@H](Cc1ccccc1)NC(=O)OC(C)(C)C
class 0

Say whether its Ratio is strictly beneath 300 M⁻¹ s⁻¹. Entry: CC(C)(C)OC(=O)NCCC(=O)N[C@@H](Cc1ccccc1)C(=O)NC/C=C/S(=O)(=O)c1ccccc1
class 1

# strict comparison: is reported Ratio < 300 M⁻¹ s⁻¹? input = CC(C)C[C@H](NC(=O)CCNC(=O)OC(C)(C)C)C(=O)NC/C=C/S(=O)(=O)c1ccccc1
class 1

Hi there! Is Ratio for CC(C)(C)OC(=O)N[C@@H](Cc1ccccc1)C(=O)NC/C=C/S(=O)(=O)c1ccccc1 below 300 M⁻¹ s⁻¹, do you know?
class 0

Answer whether the compound CCOC(=O)/C=C/CNC(=O)[C@H](Cc1ccccc1)NC(=O)COCCOCCNC(=O)OC(C)(C)C has Ratio strictly less than 300 M⁻¹ s⁻¹
class 0

Does this compound meet the criterion Ratio < 300 M⁻¹ s⁻¹? CCOC(=O)/C=C/CNC(=O)[C@H](CC(C)C)NC(=O)CCNC(=O)OC(C)(C)C
class 1

Problem: For the compound CCOC(=O)/C=C/CNC(=O)[C@H](Cc1ccccc1)NC(=O)CCNC(=O)OC(C)(C)C , is Ratio under 300 M⁻¹ s⁻¹?
class 0
